Recorded OD (against PDL1) by entry
Target: T1, PDL1-Fc fusion protein (human)
T1 construct: expressed in CHO or HEK293 cells; also called Human PDL1-Fc; recombinant human PDL1-Fc
T1 sequence (chain, as listed by the source limits assumed): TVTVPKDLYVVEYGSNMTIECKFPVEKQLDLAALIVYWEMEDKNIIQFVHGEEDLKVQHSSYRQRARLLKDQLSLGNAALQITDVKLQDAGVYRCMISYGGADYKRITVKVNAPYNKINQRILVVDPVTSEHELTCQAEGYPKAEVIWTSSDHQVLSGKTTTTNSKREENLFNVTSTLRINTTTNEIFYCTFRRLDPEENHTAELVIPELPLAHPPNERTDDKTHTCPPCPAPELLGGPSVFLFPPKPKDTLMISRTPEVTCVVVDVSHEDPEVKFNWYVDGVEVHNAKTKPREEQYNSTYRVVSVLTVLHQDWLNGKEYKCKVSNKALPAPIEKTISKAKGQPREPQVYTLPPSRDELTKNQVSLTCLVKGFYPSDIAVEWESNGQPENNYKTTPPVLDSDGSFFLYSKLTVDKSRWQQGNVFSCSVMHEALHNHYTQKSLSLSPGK
Assay: ELISA, PDL1-Fc coated, 100 ng dAb per well, anti-His detection

Binder: PDL1-81 dAb (VHH, camel heavy chain single domain antibody expressed in E. coli, purified on nickel; also called antibody No. 81; not shown: His tag from expression vector PET32b) VHH: QVQLQESGGGSVQAGGSLRLSCAASGNIIRVRCMAWFRQAPGKERERGPNILTTTISTYLADSVKGRFTISQNNAKSTVYLQMNSLKPEDTAMYYCAADSFGYPTCPGPASSGAFQYWGQGTQVTVSS
Value Measured: 2.68 OD (405 nm)

Moving on to another binder below.
Q) Which OD (against PDL1) is reported for this binder? PDL1-94 dAb (VHH, camel heavy chain single domain antibody expressed in E. coli, purified on nickel; also called antibody No. 94; not shown: His tag from expression vector PET32b) VHH: QVQLQESGGGSVQAGGSLRLSCAASLNIFSSYCMGWFRQAPGKQRVGVATIDSDGTTRYVDSVKGRFTISKDNAKNTLDLQMNSLKPEDTAMYYCAARLNCPGPVDWVPMFPYRGQGTQVTVSS
A) 0.875 OD (405 nm)

The values you see were collected from patent US20180327494A1.
